Target: T1, human CLDN6 protein (human, UniProt P56747 1-220)
T1 construct: whole, on cells; also called hCLDN6; claudin 6
T1 sequence (looked up): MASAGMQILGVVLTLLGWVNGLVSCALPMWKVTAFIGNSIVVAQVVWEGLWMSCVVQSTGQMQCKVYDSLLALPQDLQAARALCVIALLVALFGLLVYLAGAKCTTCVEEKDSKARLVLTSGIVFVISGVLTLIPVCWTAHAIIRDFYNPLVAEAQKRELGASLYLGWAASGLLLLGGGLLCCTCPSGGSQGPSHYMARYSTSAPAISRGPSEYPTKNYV
Experiment: flow cytometry on cells overexpressing human CLDN6; 10 µg/mL purified antibody, Alexa 647 anti-mouse secondary; single point
Catalogue of MFI values
Kindly provide the number alone.

Below, 2 binders whose answers are already recorded.
1. SC27.104 mouse monoclonal anti-CLDN antibody (antibody, V domains shown) VH: EVQLQQSGPELVKPGASVKISCKTSGYTFTEYTVHWVKQSHGKSLEWIGGVYPKNGDTTYNQKFRGKATLTVDKSSNTAYMELRSLTSEDSAVYYCTGKDGYDGFAYWGQGTLVTVSA VL: DIQMTQSSSSFSVSLGDRVTITCKASEDIYNRLAWYQQKPGNAPRLLISGATSLETGVPSRFSGSGSGKDYTLSITSLQTEDVATYYCQQYWSNPPTFGGGTKLEIK ... 39200
2. SC27.105 mouse monoclonal anti-CLDN antibody (antibody, V domains shown) VH: EVQLQQSGPELVKPGASVKISCKASGYSFTGYYMNWVKQSPEKSLEWIGEINPSTGSTTYNQKFKAKATLTVDKSSSTAYMQLKSLTSEDSAVYYCARRDYYYGSGFYAMDYWGQGTSVTVSS VL: DVQMTQSPSSLSASLGERVSLTCQASQSVSNNLNWYQQTPGKAPRLLIYGASKLEDGVSSRFSGTGYGTDFTFTISSLEEEDVATYFCLQHRYLWTFGGGTKLEIK ... 83000

Exam item: Look up MFI for this binder: SC27.103 mouse monoclonal anti-CLDN antibody (antibody, V domains shown) VH: EVHLQQSGPELVKPGGSMKISCKASGYSFTGYTMNWVKQSHGKNLEWIGLFNPYNGGTSYNQKFKGKATLTVDKSSSTAYMELLSLTSEDSAVYYCARCYRYDGLDYWGQGTTLTVSS VL: QIVLTQSPAIMSASLGERVTMTCTASSSVSSSYLHWYQQKPGSSPTLWIYRTSDLASGVPARFSGSGSGTSYSLTISSMEAEDAATYYCHQYHRSPWTFGGGTRLEIK
Marked response: 99600
